EXPERIMENTAL_DETAILS: inhibitors of poly I:C-induced TLR3 signaling, primary screen, cell-based, poly I:C stimulus, luciferase, 10K MLSCN set (AID 602277)
CONDITION: HEK293-TLR3 RL24 IRF3 luciferase reporter, at 10 µM, hits give high values
t means recorded inhibition is 20% or above; f means it is below 20%.

Enquiry: Check this compound for inhibition at or above 20%: `O=C(CSc1nnc(-c2ccc(Br)o2)n1Cc1ccccc1)c1ccccc1F`
Return: f

====

EXPERIMENTAL_DETAILS: inhibitors of Sendai virus-induced IRF3 signaling, primary screen, TLR/RLR signaling modifier project, cell-based, Sendai virus stimulus, luciferase, 10K MLSCN set (AID 602276);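 note: firefly luciferase from ISG56 promoter only with Renilla not read in this screen; 0% = Sendai virus plus DMSO and 100% = medium plus DMSO without virus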
CONDITION: HEK293 RL24 IRF3 luciferase reporter, at 10 µM, hits give high values
ATTRIBUTE_MEASURED: inhibition (%)
Numbers only, in %.

Here are 6 compounds together with their reported answers.
{"COMPOUND": "CCOC(=O)c1ccc(Oc2nc(SC)nc(N(C)C)n2)cc1", "UNIT_ABBREVIATION": "%", "inhibition": 3.96}
{"COMPOUND": "Cn1c(=O)[nH]c(=O)c2c1nc(N1CCNCC1)n2CCOc1ccccc1", "UNIT_ABBREVIATION": "%", "inhibition": -11.6}
{"COMPOUND": "N#CC1=C(SCC(=O)NC23CC4CC(CC(C4)C2)C3)NC(=O)C(C#N)C12CCCCC2 (configuration not stated)", "UNIT_ABBREVIATION": "%", "inhibition": 16.3}
{"COMPOUND": "COc1ccc(C2C(C(=O)NCCN3CCOCC3)c3ccccc3C(=O)N2C2CCCCC2)cc1 (configuration not stated)", "UNIT_ABBREVIATION": "%", "inhibition": 30.2}
{"COMPOUND": "CCOCCCNC(=O)C(c1ccc(C)cc1)N(Cc1ccc2c(c1)OCO2)C(=O)c1cnccn1 (configuration not stated)", "UNIT_ABBREVIATION": "%", "inhibition": 9.6}
{"COMPOUND": "O=C(Cc1cccs1)NCc1ccc(F)cc1", "UNIT_ABBREVIATION": "%", "inhibition": -18.8}

Switching to the query record.
Enquiry: Could you tell me which inhibition is on file for `CN(CCc1ccccn1)C(=O)CCNC(=O)Cn1cnc2ccccc2c1=O` ?
Return: 13.8

====

MEASURED_TARGET: Voltage-gated potassium channel subunit beta-2 (Rattus norvegicus) (UniProt P62483)
Sequence (P62483 whole entry, looked up): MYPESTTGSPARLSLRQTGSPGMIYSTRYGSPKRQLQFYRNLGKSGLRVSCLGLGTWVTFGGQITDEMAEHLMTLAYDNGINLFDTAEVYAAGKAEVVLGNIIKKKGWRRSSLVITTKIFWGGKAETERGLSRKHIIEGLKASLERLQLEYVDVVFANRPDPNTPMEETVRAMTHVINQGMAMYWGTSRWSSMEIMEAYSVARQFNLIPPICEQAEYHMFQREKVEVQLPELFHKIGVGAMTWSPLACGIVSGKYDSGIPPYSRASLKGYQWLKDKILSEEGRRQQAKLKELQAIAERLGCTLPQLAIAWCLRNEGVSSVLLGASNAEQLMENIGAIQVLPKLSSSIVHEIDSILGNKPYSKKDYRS
EXPERIMENTAL_DETAILS: KvBeta positive modulators, primary screen, biochemical, NADPH fluorescence (AID 623);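 note: fluorescence intensity change per second fitted from 20 to 320 s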
CONDITION: Recombinant KvBeta, NADPH fluorescence decrease slope, 10 min; at 10 µM; hits give low values
ATTRIBUTE_MEASURED: NADPH fluorescence slope
Numbers only.

{"COMPOUND": "CCOC(=O)N1CCN(C(c2ccc(Cl)cc2)c2sc3nc(C)nn3c2O)CC1 (stereo not given)", "NADPH fluorescence slope": "-3.7e-05"}
{"COMPOUND": "Cc1ccc(-c2ccc(=O)n(CCC(=O)NCCN3CCCCC3C)n2)cc1 (stereo not given)", "NADPH fluorescence slope": "-2.5e-05"}
{"COMPOUND": "CCN(C(=O)c1c(OC)cccc1OC)c1nnc(-c2cccnc2)s1", "NADPH fluorescence slope": "-3.4e-05"}

// batch mode: one NADPH fluorescence slope value per listed entry
1. O=C(CSc1nccn1Cc1ccccc1)Nc1nccs1
2. Cn1c(=O)c2c(nc(NCCCO)n2C/C=C/c2ccccc2)n(C)c1=O

Return:
-2.7e-05
9.8e-06

====

MEASURED_TARGET: Alpha-2C adrenergic receptor (Homo sapiens) (UniProt P18825)
Sequence (P18825 whole entry, looked up): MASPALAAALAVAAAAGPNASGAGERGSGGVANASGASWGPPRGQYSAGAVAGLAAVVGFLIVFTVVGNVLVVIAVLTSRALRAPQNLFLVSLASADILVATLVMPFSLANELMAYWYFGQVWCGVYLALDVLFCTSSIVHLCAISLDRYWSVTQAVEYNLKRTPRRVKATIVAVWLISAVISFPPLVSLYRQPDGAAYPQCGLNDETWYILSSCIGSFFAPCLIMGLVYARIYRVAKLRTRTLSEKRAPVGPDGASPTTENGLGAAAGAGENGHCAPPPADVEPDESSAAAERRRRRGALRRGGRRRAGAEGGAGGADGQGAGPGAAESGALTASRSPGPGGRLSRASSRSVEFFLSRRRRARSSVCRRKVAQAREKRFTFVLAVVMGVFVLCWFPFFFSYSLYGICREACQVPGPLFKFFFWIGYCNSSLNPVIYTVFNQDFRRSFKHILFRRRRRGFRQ
EXPERIMENTAL_DETAILS: modulators of alpha2C/GIRK thallium flux, primary screen, cell-based, HEK293 alpha2C/GIRK1/2 (AID 624);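 note: slope of fluorescence ratio to pre-addition baseline per second over 15 to 24 s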
CONDITION: thallium flux BTC fluorescence, at 10 µM, actives lie on both sides
Where a SMILES comes first, the peptide text is derived from it. The star is where a group is joined. Boc = CC(C)(C)OC(=O)*
ATTRIBUTE_MEASURED: slope
One number for each entry.

{"COMPOUND": "COc1ccc(C(=O)N(CCCO)Cc2cc3c(C)ccc(C)c3[nH]c2=O)cc1OC", "READOUT_NUMBER": 0.00636}

// batch mode: one slope value per listed entry
1. CC(C)=CCCC(C)CN(C)CCc1ccccn1 (configuration not stated)
2. CCCCOn1c(C)c(C(=O)OCC)c2c3nonc3ccc21
3. CC(C)=CC(=O)N1CCCc2ccccc21
4. CCCc1cc(=O)[nH]c(SCc2ccccc2)n1

Return:
1. 0.00676
2. 0.00452
3. 0.00337
4. 0.00614

// batch mode: one slope value per listed entry
1. COc1cccc(Nc2cc(C)nc3ccccc23)c1
2. COc1ccc(-c2nn3c(-c4cccc(C)c4)nnc3s2)cc1OC
3. CCn1cc(C2=NCC(C)O2)c2ccccc21 (configuration not stated)
4. CCCCC(=O)NCCNc1nc2c(c(=O)n(C)c(=O)n2C)n1Cc1ccccc1
5. Cc1ccc(-c2nc3cc(NC(=O)C(C)C)ccc3o2)cc1C
6. CSCCC(NC(=O)OC(C)(C)C)C(=O)NC(CC(C)C)C(N)=O (stereo not drawn) (Boc-Met-Leu-NH2; configuration not given here)

Return:
[0.00478, 0.00514, 0.00619, 0.00636, 0.00605, 0.00653]

// batch mode: one slope value per listed entry
1. COc1cc(OC)c2c(c1)OC(c1ccc(OC)c(OC)c1)C(O)C2=O (configuration not stated)
2. CN(C)/C=C1\N=C(c2ccc3c(c2)OCO3)OC1=O
3. O=C(CCN1C(=O)C2C3C=CC(C3)C2C1=O)N1CCN(c2ccccc2Cl)CC1 (configuration not stated)
4. CCOC(=O)CSc1nnc(Cn2nnc(-c3ccccc3)n2)n1CC

Return:
1: 0.00643; 2: 0.0038; 3: 0.00465; 4: 0.006

// batch mode: one slope value per listed entry
1. O=C(NCc1ccccn1)c1cccs1
2. Cc1nc(N2CCc3ccccc32)[nH]c(=O)c1CCC(C)C

Return:
1: 0.00519; 2: 0.00282

====

MEASURED_TARGET: Voltage-gated potassium channel subunit beta-2 (Rattus norvegicus) (UniProt P62483)
EXPERIMENTAL_DETAILS: KvBeta positive modulators, primary screen, biochemical, NADPH fluorescence (AID 623);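 note: fluorescence intensity change per second fitted from 20 to 320 s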
CONDITION: Recombinant KvBeta, NADPH fluorescence decrease slope, 10 min; at 10 µM; hits give low values
Activity calls are given as the source filed them.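 Rule for the calls: active = NADPH fluorescence slope more negative than the mean of all samples by about 3 SD, 99.7% confidence; inactive = the rest.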
I'd be grateful if you could share measured NADPH fluorescence slope for these entries.

Here are 10 compounds together with their reported answers.
{"COMPOUND": "Clc1ccc(-n2ncc3c(NCc4ccco4)ncnc32)cc1", "MEASURED_TARGET": "Voltage-gated potassium channel subunit beta-2 (Rattus norvegicus) (UniProt P62483)", "NADPH fluorescence slope": "-2.6e-05 (inactive)"}
{"COMPOUND": "CC(C)CSc1nc2ccccc2n1CC(N)=O", "MEASURED_TARGET": "Voltage-gated potassium channel subunit beta-2 (Rattus norvegicus) (UniProt P62483)", "NADPH fluorescence slope": "-4.7e-05 (inactive)"}
{"COMPOUND": "Nc1c(C(=O)NCc2ccco2)sc2nc(N3CCOCC3)c3c(c12)CCCC3", "MEASURED_TARGET": "Voltage-gated potassium channel subunit beta-2 (Rattus norvegicus) (UniProt P62483)", "NADPH fluorescence slope": "4.6e-08 (inactive)"}
{"COMPOUND": "CCOc1cc(S(=O)(=O)Nc2ccccn2)ccc1F", "MEASURED_TARGET": "Voltage-gated potassium channel subunit beta-2 (Rattus norvegicus) (UniProt P62483)", "NADPH fluorescence slope": "4.6e-06 (inactive)"}
{"COMPOUND": "Cc1csc2nc(CSc3ccc(Cl)cc3)cn12", "MEASURED_TARGET": "Voltage-gated potassium channel subunit beta-2 (Rattus norvegicus) (UniProt P62483)", "NADPH fluorescence slope": "-2e-05 (inactive)"}
{"COMPOUND": "CCCN1CCN(CCCNC(=O)C2CCCN(c3nc4ccc(OCC)cc4s3)C2)CC1 (stereo unspecified)", "MEASURED_TARGET": "Voltage-gated potassium channel subunit beta-2 (Rattus norvegicus) (UniProt P62483)", "NADPH fluorescence slope": "-4.5e-05 (inactive)"}
{"COMPOUND": "CCC1CC2(C)NC(=O)c3c(sc4c3CC(C)(C)OC4)N2C1=O (stereo unspecified)", "MEASURED_TARGET": "Voltage-gated potassium channel subunit beta-2 (Rattus norvegicus) (UniProt P62483)", "NADPH fluorescence slope": "3.9e-06 (inactive)"}
{"COMPOUND": "CC(NC(=O)COc1ccc(Br)cc1)C(=O)O (stereo unspecified)", "MEASURED_TARGET": "Voltage-gated potassium channel subunit beta-2 (Rattus norvegicus) (UniProt P62483)", "NADPH fluorescence slope": "-1.3e-05 (inactive)"}
{"COMPOUND": "CCCn1nc(Oc2nc(SC)nc(N(C)C)n2)ccc1=O", "MEASURED_TARGET": "Voltage-gated potassium channel subunit beta-2 (Rattus norvegicus) (UniProt P62483)", "NADPH fluorescence slope": "3.6e-05 (inactive)"}
{"COMPOUND": "CCCOc1ccc(N2C(=O)CC(SCCN)C2=O)cc1 (stereo unspecified)", "MEASURED_TARGET": "Voltage-gated potassium channel subunit beta-2 (Rattus norvegicus) (UniProt P62483)", "NADPH fluorescence slope": "-1.8e-05 (inactive)"}

// batch mode: one NADPH fluorescence slope value per listed entry
1. CCN(Cc1nc2ccccc2c(=O)[nH]1)Cc1cc(=O)oc2cc(C)c(C)cc12
2. COC(=O)c1ccc(C2/C(=C(\O)c3cccc(OC)c3)C(=O)C(=O)N2CCCN2CCOCC2)cc1 (stereo unspecified)
3. C=CCNc1nc(NCc2ccccc2)c(C#N)c2c1CN(C)CC2

Return:
1. -4.6e-05 (inactive)
2. -2e-05 (inactive)
3. -5.5e-05 (inactive)

// batch mode: one NADPH fluorescence slope value per listed entry
1. CN(C)CCCOC(=O)c1ccc(Cl)cc1Cl
2. Cc1cc(C(=O)CSc2nnc(-c3ccco3)o2)c(C)n1CC1COc2ccccc2O1 (stereo unspecified)
3. O=C1NC2=C(C(=O)CCC2)C(c2ccc3ncccc3c2)N1 (stereo unspecified)

Return:
1. -0.0001 (inactive)
2. -2.2e-05 (inactive)
3. -5e-05 (inactive)
